# System: cancer cell lines from the cancer cell line encyclopedia (CCLE)
# testMethodNotes: Cell line profiling (CLiP) proliferation experiment
# Assay type: cell-based
# conditionContext: cell line RD; read-out: Crossing Point
# Experimental: Compound profiling experiment and data analysis was performed as previously described. Data was imported and plotted using the Tibco Spotfire DXP application. Lines were categorized as sensitive, intermediate and refractory as follows: Amax<-40 & Inflection Point <2 ~ Sensitive, Amax>-20 & Inflection Point >10 ~ Refractory, all else were called Intermediate. Cancer Cell line HG-U133 Plus 2 data was processed and normalized as described. […]
pIC50: −log10 of the molar value.
propertyName: pIC50

Enquiry: Output reported pIC50 of the molecule `CC(C)[C@@]12C[C@@H](O)[C@@](C)(O1)[C@@H]1CC[C@@H](C)[C@H]1[C@@H]2OC(=O)/C=C/c1ccccc1` on cancer cell lines from the cancer cell line encyclopedia (CCLE).
Return: < 4.52

Data credit: paper PMC4476799
